test system: K562; experiment: NCI tumour cell line growth inhibition, 48 h
The source made the active and inactive calls. No stated cut-off is given here; in the data, active = GI50 up to about 1.1 µM and inactive = higher.
Classes used: y for active, n for inactive

• COc1cc(/C=N/N=C(\N)NO)ccc1O = n
• COc1cccc(OC)c1NC(=O)C(=O)Nn1c(NNC(=O)c2ccncc2)nc2ccccc2c1=O = n
• C[C@H](O)C(=O)SC[C@H](NC(=O)CC[C@@H](N)C(=O)O)C(=O)NCC(=O)O = n
• c1ccc(CN2CCCCC(Sc3ccccc3)CC2)cc1 (configuration not stated) = n
• C[C@@]12[C@H]3CC[C@@H]1[C@H](O)C(=O)N2CC3 = n
• CN1CC2=C(OC(N)=C(C#N)C2c2cccs2)/C(=C/c2cccs2)C1 (configuration not stated) = n
• CCOC(=O)C(NC(=O)Nc1ccc(Cl)c(Cl)c1)C(F)(F)F (configuration not stated) = n
• C=CCCCN1CCCCC1=S = n
• CC(C)=CCC[C@@H](C)[C@H]1CC[C@@]2(C)[C@@H]3CC[C@H]4C(C)(C)[C@@H](O)CC[C@@]45C[C@@]35CC[C@]12C = n
• CC1=Nc2ccccc2/C1=C\c1c(C)[nH]c2ccccc12 = n
• CSc1nnc(C(C#N)C#N)nn1 = n
• COc1cccc(CCNc2c(C#N)c3n(c4ccccc4[n+]3C)c3ncccc23)c1 = n
• O=C(NCCCl)Nc1ccccc1 = n
• COC(=O)C(=O)Cc1nc2ccccc2o1 = n
• O=C1C=CC2(C=C1)O[C@H](COCc1ccccc1)[C@@H](COCc1ccccc1)O2 = n
• CCOC(=O)C1=C(C(=O)OCC)SC2(S1)C(C(=O)OCC)=C(C(=O)OCC)Sc1c2ssc1=O = y
• CC1=Nc2ccccc2S(=O)(=O)N1 = n
• CC(C)[C@@H]1CC[C@@H](C)C[C@H]1OC(=O)c1c2n(c3ccccc13)C[C@H]1OC(C)(C)O[C@@H]21 = n
• Cc1cccc2c1CC1(Cc3c(C)cccc3C1=O)C2=O = n
• N=C1NC2(O)C(=O)c3ccccc3C2(O)N1 (configuration not stated) = n
• O=C1CSC(c2c[nH]c3ccccc23)N1c1ccc(Cl)cc1Cl (configuration not stated) = n
• COc1cc2c(cc1O)C1Cc3ccc(OC)c(O)c3C[N+]1(C)CC2 (configuration not stated) = n
• O=C1C(Cl)=C(N2CCN(CCOCCO)CC2)C(=O)c2c(O)ccc(O)c21 = y
• O=C(c1cccs1)N(C(=S)N1CCN(c2ccccn2)CC1)c1ccccc1 = n
• COc1ccc(C(=O)/C=C/c2ccc(OCC(=O)N3CCN(c4ccccc4)CC3)cc2)cc1 = n
• CCc1ccccc1NC(=O)C1=C(C)NC(C)=C(C(=O)Nc2c(CC)cccc2CC)C1c1ccc2c(c1)OCO2 (configuration not stated) = n
• CCO[C@]12C[C@H](OC)[C@@]3(O)CC(C1[C@H]3O)C13C4C2[C@H](OC)C1[C@](COC)(CN4CC)[C@H](O)C[C@@H]3OC (some centres not stated) = n
• C=CC(Br)(CBr)CCC1OC1(C)C (configuration not stated) = n
• COc1ccc(/N=C(\C)c2ccncc2)cc1 = n
• CC(C)=CCC/C(C)=C/CC/C(C)=C/[C@@H]1[C@@H](CO)[C@]1(C)CC/C=C(\C)CCC=C(C)C = n
• CN1CCN(Cn2nc(-c3ccccc3)n(/N=C/c3ccc(-c4ccc(Cl)cc4Cl)o3)c2=S)CC1 = n
• CNC(SC)=C1C(=O)OC(C)(C)OC1=O = n
